Experimental System: mu opioid receptor
Sequence (P35372 whole entry): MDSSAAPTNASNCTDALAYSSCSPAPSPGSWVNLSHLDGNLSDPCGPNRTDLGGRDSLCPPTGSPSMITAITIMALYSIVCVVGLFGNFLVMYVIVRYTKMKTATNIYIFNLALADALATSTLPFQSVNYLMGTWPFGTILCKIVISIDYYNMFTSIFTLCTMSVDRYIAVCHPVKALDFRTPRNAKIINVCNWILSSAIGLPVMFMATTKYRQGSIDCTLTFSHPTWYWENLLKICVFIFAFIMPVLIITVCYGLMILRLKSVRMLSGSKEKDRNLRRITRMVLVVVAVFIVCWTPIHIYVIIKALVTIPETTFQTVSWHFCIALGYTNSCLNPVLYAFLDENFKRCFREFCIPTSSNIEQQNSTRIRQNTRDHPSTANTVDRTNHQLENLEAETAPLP
Procedure Details: opioid receptor assay, format not described (Table 1, µ IC50)
Non-standard residues stand in square brackets, D forms with d. No end group written: not given here. *: point of attachment. βGlc = OC[C@H]1O[C@@H](*)[C@H](O)[C@@H](O)[C@@H]1O; Aib = CC(C)(N)C(=O)O; βAla = NCCC(=O)O
Reported Endpoint: pIC50
// field semantics: pIC50 = negative decimal log of concentration (mol/L)

Request: Given the binder Y[dT]GFLGELAS(βGlc)KWFNALES(βGlc)-NH2 [Glycopeptide 2 (YtGFLGELAS*KWFNALES*)] , what is its reported pIC50?
Response: 6.84

Request: Now the binder Y[dT]GFLGKS(βGlc)FAELWS(βGlc)NFLS(βGlc)-NH2 [Glycopeptide 7 (YtGFLGKS*FAELWS*NFLS*)]
Response: 7.42

Request: How about this binder: Y[dT]GFLGLLKS(βGlc)FAES(βGlc)WS(βGlc)NF-NH2 [Glycopeptide 6 (YtGFLGLLKS*FAES*WS*NF)]
Response: 6.81

Request: Moving on to Y[dT]GFLPNL[Aib]EKALKS(βGlc)L-NH2 [Glycopeptide 9 (YtGFLPNLBEKALKS*L)]
Response: 7.04

Request: Try Y[dT]GFLGGNL[Aib]EKALKS(βGlc)L-NH2 [Glycopeptide 11 (YtGFLGGNLBEKALKS*L)] next.
Response: 7.28

Request: Now this one: Y[dT]GFL[βAla]NL[Aib]EKALKS(βGlc)L-NH2 [Glycopeptide 10 (YtGFLβANLBEKALKS*L)]
Response: 6.82
